# System: Sheep choroid plexus (SCP) cells
# assay_method_text: Toxicity of compounds in control wells without virus, graded morphologically
# Type: cell-based
# experimental_parameters: 1.0 mM; graded 0 to 4; Table 2
measure_name: Toxicity

compound	measure_name	observed_measurement
CCCC(=O)OC[C@@H]1[C@@H](OC(=O)CCC)[C@H](OC(=O)CCC)[C@@H](OC(=O)CCC)CN1CCCCCCCC(F)(F)F	Toxicity	2
CC(=O)OC[C@@H]1[C@@H](OC(C)=O)[C@H](OC(C)=O)[C@@H](OC(C)=O)CN1C(=O)c1cccnc1	Toxicity	3
CC(=O)OC[C@@H]1[C@@H](OC(C)=O)[C@H](OC(C)=O)[C@@H](OC(C)=O)CN1CCCC(F)(F)F	Toxicity	2
CCCC(=O)OC[C@@H]1[C@@H](O)[C@H](OC(=O)CCC)[C@@H](OC(=O)CCC)CN1CCCCCC(F)(F)F	Toxicity	2
CCCC(C)CN1C[C@H](OC(C)=O)[C@@H](OC(C)=O)[C@H](OC(C)=O)[C@H]1COC(C)=O (some centres unmarked)	Toxicity	3
CCCCN1C[C@H](OC(=O)C(C)(C)C)[C@@H](O)[C@H](OC(=O)C(C)(C)C)[C@H]1COC(=O)C(C)(C)C [Example 50B]	Toxicity	2
CCC(CC)CN1C[C@H](OC(C)=O)[C@@H](OC(C)=O)[C@H](OC(C)=O)[C@H]1COC(C)=O	Toxicity	3
CC(C)C(=O)OC[C@@H]1[C@@H](OC(=O)C(C)C)[C@H](OC(=O)C(C)C)[C@@H](OC(=O)C(C)C)CN1C(=O)Cc1ccccc1	Toxicity	3

###

# System: Sheep choroid plexus (SCP) cells
# assay_method_text: Toxicity of compounds in control wells without virus, graded morphologically
# Assay type: cell-based
# Design: key: 0: no toxicity; 4: total cell lysates
# experimental_parameters: 1.0 mM; 0 to 4 scale; Table 1
Below, each of the compounds is paired with its reported Toxicity value.

molecule_smiles	system_tested	Toxicity
CCCCN1C[C@H](OC(C)=O)[C@@H](OC(C)=O)[C@H](OC(C)=O)[C@H]1COC(C)=O	Sheep choroid plexus (SCP) cells	0
CCCCN1C[C@H](OC(C)=O)[C@@H](OC(C)=O)[C@@H]2O[C@H](c3ccccc3)OC[C@H]21	Sheep choroid plexus (SCP) cells	0
CCCCN1C[C@H](OC(=O)CCC)[C@@H](OC(=O)CCC)[C@H](OC(=O)CCC)[C@H]1COC(=O)CCC	Sheep choroid plexus (SCP) cells	4

###

Listed here are compounds together with their documented Toxicity.
# System: Sheep choroid plexus (SCP) cells
# assay_method_text: Toxicity of compounds in control wells without virus, graded morphologically
# Type: cell-based
# experimental_parameters: 0.1 mM; graded 0 to 4; Table 2

compound	Toxicity
CCCCN1C[C@H](OC(=O)C(C)(C)C)[C@@H](OC(=O)C(C)(C)C)[C@H](OC(=O)C(C)(C)C)[C@H]1COC(=O)C(C)(C)C [Example 50A]	1
CCCCCCCCCCc1ccc(C(=O)N2C[C@H](OC(C)=O)[C@@H](OC(C)=O)[C@H](OC(C)=O)[C@H]2COC(C)=O)cc1 [Example 47]	1
CC(=O)OC[C@@H]1[C@@H](OC(C)=O)[C@H](OC(C)=O)[C@@H](OC(C)=O)CN1C(=O)c1cccnc1 [Example 35]	1
CC(=O)OC[C@@H]1[C@@H](OC(C)=O)[C@H](OC(C)=O)[C@@H](OC(C)=O)CN1C(=O)c1ccc(-c2ccccc2)cc1 [Example 53]	2
CCCCN1C[C@H](OC(C)=O)[C@@H](OC(C)=O)[C@H](O)[C@H]1CO [Example 28]	2
CC(=O)OC[C@@H]1[C@@H](OC(C)=O)[C@H](OC(C)=O)[C@@H](OC(C)=O)CN1C(=O)CCOc1ccc(Cl)cc1 [Example 51]	1

###

# Tested on: Sheep choroid plexus (SCP) cells
# assay_method_text: Toxicity of compounds in control wells without virus, graded morphologically
# Assay type: cell-based
# experimental_parameters: 0.1 mM; 0 to 4 scale; Table 1

compound	Toxicity
CCCCN1C[C@H](OC(=O)c2ccccc2)[C@@H](OC(=O)c2ccccc2)[C@H](OC(=O)c2ccccc2)[C@H]1COC(=O)c1ccccc1 [Example 18]	1
CCCCN1C[C@H](O)[C@@H](O)[C@H](O)[C@H]1CO [N-Bu-DNJ, 1,5-(Butylimino)-1,5-dideoxy-D-glucitol, reference compound]	1
CCCCCCCCCN1C[C@H](OC(C)=O)[C@@H](OC(C)=O)[C@H](OC(C)=O)[C@H]1COC(C)=O [Example 14]	2
CCCCN1C[C@H](OC(=O)CCC)[C@@H](OC(=O)CCC)[C@H](OC(=O)CCC)[C@H]1COC(=O)CCC [Example 16]	1
CC(=O)OC[C@@H]1[C@@H](OC(C)=O)[C@H](OC(C)=O)[C@@H](OC(C)=O)CN1C(=O)CCc1ccccc1 [Example 20]	1
CC(=O)OC[C@@H]1[C@@H](OC(C)=O)[C@H](OC(C)=O)[C@@H](OC(C)=O)CN1C(=O)COc1ccccc1 [Example 25]	1

###

# Test system: Sheep choroid plexus (SCP) cells
# assay_method_text: Toxicity of compounds in control wells without virus, graded morphologically
# Type: cell-based
# Parameters: key: 0: no toxicity observed; 4: total lysing of the cell monolayer
# experimental_parameters: 1.0 mM; graded 0 to 4; Table 2

compound	Toxicity
CCCC(=O)OC[C@H]1NC[C@H](OC(=O)CCC)[C@@H](OC(=O)CCC)[C@@H]1OC(=O)CCC [Example 42]	4
CCCCN1C[C@H](OC(=O)CCC(C)C)[C@@H](OC(=O)CCC(C)C)[C@H](OC(=O)CCC(C)C)[C@H]1COC(=O)CCC(C)C [Example 49]	0
CC(=O)OC[C@@H]1[C@@H](OC(C)=O)[C@H](OC(C)=O)[C@@H](OC(C)=O)CN1C(=O)CCOc1ccc(Cl)cc1 [Example 51]	4
CCCC(=O)OC[C@@H]1[C@@H](OC(=O)CCC)[C@H](OC(=O)CCC)[C@@H](OC(=O)CCC)CN1C(=O)c1ccccc1OC(C)=O [Example 52]	4
CCCCN1C[C@H](OC(C)=O)[C@@H](OC(C)=O)[C@H](O)[C@H]1CO [Example 28]	4
CC(=O)OC[C@@H]1[C@@H](OC(C)=O)[C@H](OC(C)=O)[C@@H](OC(C)=O)CN1C(=O)C=Cc1ccccc1 [Example 36]	4
CC(=O)OC[C@@H]1[C@@H](OC(C)=O)[C@H](OC(C)=O)[C@@H](OC(C)=O)CN1C(=O)Cc1ccc(Cl)cc1 [Example 40]	4
CCCCN1C[C@H](OC(=O)CCC2CCCC2)[C@@H](OC(=O)CCC2CCCC2)[C@H](OC(=O)CCC2CCCC2)[C@H]1COC(=O)CCC1CCCC1 [Example 56]	0
CCCCN1C[C@H](OC(=O)C(C)(C)C)[C@@H](OC(=O)C(C)(C)C)[C@H](OC(=O)C(C)(C)C)[C@H]1COC(=O)C(C)(C)C [Example 50A]	4

###

# Test system: Sheep choroid plexus (SCP) cells
# assay_method_text: Toxicity of compounds in control wells without virus, graded morphologically
# Assay type: cell-based
# Design: key: 0: no toxicity observed; 4: total lysing of the cell monolayer
# experimental_parameters: 0.001 mM; graded 0 to 4; Table 2

compound	Toxicity
CC(=O)OC[C@@H]1[C@@H](OC(C)=O)[C@H](OC(C)=O)[C@@H](OC(C)=O)CN1C(=O)CCOc1ccc(Cl)cc1	0
CCCC(=O)OC[C@@H]1[C@@H](O)[C@H](OC(=O)CCC)[C@@H](OC(=O)CCC)CN1CCCCCC(F)(F)F	0
CCCC(=O)OC[C@@H]1[C@@H](OC(=O)CCC)[C@H](OC(=O)CCC)[C@@H](OC(=O)CCC)CN1C(=O)Cc1cccs1	0
CCCCN1C[C@H](OC(=O)C(C)(C)C)[C@@H](O)[C@H](OC(=O)C(C)(C)C)[C@H]1COC(=O)C(C)(C)C [Example 50B]	0

###

# Tested on: Sheep choroid plexus (SCP) cells
# assay_method_text: Toxicity of compounds in control wells without virus, graded morphologically
# Type: cell-based
# Design: key: 0: no toxicity; 4: total cell lysates
# experimental_parameters: 0.1 mM; 0 to 4 scale; Table 1
Examples of compounds with documented Toxicity follow.
measure_name: Toxicity

compound	system_tested	measure_name	observed_measurement
CCCCN1C[C@H](OC(=O)C(C)C)[C@@H](OC(=O)C(C)C)[C@H](OC(=O)C(C)C)[C@H]1COC(=O)C(C)C [Example 22]	Sheep choroid plexus (SCP) cells	Toxicity	0
CCCCN1C[C@H](OC(C)=O)[C@@H](OC(C)=O)[C@H](OC(C)=O)[C@H]1COC(C)=O [Example 7]	Sheep choroid plexus (SCP) cells	Toxicity	0
CCOC(=O)CC(=O)N1C[C@H](OC(C)=O)[C@@H](OC(C)=O)[C@H](OC(C)=O)[C@H]1COC(C)=O [Example 8]	Sheep choroid plexus (SCP) cells	Toxicity	0
CCCCN1C[C@H](OC(=O)CC)[C@@H](OC(=O)CC)[C@H](OC(=O)CC)[C@H]1COC(=O)CC [Example 17]	Sheep choroid plexus (SCP) cells	Toxicity	4
CC(=O)OC[C@@H]1[C@@H](OC(C)=O)[C@H](OC(C)=O)[C@@H](OC(C)=O)CN1C(=O)c1ccccc1 [Example 5]	Sheep choroid plexus (SCP) cells	Toxicity	0
